# TARGET_OR_SYSTEM: Recombinant IKKβ (Homo sapiens, UniProt O14920)
# Construct: purchased Millipore, Dundee, UK
# Sequence (O14920 whole entry): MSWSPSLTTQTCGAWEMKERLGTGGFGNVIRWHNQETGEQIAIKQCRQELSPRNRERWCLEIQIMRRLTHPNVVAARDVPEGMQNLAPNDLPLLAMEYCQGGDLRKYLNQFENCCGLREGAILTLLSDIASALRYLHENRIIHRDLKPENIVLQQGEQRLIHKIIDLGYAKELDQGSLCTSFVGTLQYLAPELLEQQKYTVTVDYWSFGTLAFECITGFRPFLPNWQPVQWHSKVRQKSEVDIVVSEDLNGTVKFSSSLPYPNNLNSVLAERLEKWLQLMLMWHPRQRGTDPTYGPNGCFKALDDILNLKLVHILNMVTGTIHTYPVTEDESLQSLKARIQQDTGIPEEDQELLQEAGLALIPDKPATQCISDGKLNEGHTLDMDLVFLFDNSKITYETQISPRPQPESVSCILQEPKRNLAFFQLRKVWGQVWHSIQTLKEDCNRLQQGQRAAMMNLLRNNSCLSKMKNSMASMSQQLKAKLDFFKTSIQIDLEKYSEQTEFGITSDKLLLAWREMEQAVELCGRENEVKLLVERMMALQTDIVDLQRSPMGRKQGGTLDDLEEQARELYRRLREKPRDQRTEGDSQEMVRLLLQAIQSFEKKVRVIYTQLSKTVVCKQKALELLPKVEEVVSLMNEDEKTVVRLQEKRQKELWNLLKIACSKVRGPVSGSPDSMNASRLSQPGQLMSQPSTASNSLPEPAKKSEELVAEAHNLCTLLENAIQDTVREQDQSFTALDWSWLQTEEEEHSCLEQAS
# PROTOCOL_SUMMARY: DELFIA IKKβ kinase assay (apparent Ki, Cheng-Prusoff)
# Assay type: biochemical
# STUDY_CONDITIONS: non-italicised figure: DELFIA assay
QUANTITY_NAME: Ki (nM)

>>> data_value("CS(=O)(=O)c1ccc(NC(=O)Nc2cc(-c3ccc4[nH]nc(N)c4c3)ccn2)cc1")
419
>>> data_value("CN(C)c1ccc(-c2cc(-c3ccnc(N)c3)cc3c(N)n[nH]c23)cc1")
2510
>>> data_value("Nc1cc(-c2cc(-c3cccc(CO)c3)c3[nH]nc(N)c3c2)ccn1")
290
>>> data_value("CCc1ccccc1NC(=O)Nc1cc(-c2ccc3[nH]nc(N)c3c2)ccn1")
4200
